- TARGET UNDER TEST: HDAC3/NCoR2 (Homo sapiens, UniProt O15379)
- Construct: HDAC3/NCoR2 (full length, C-terminal His tag, NCoR2 N-terminal GST tag); purchased BPS Bioscience 50003
- Sequence (O15379 whole entry): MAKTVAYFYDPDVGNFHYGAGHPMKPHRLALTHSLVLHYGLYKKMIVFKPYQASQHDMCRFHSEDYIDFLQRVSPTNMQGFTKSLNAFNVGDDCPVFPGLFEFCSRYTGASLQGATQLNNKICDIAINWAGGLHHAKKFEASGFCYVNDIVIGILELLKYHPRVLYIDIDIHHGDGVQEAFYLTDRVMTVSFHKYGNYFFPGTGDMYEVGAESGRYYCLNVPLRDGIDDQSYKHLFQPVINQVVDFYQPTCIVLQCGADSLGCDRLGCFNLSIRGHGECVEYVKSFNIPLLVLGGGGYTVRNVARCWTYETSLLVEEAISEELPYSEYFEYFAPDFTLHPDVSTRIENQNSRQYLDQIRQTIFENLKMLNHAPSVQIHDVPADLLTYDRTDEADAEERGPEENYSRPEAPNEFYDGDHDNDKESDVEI
- Sequence (Q9Y618 389-480 partner limits assumed): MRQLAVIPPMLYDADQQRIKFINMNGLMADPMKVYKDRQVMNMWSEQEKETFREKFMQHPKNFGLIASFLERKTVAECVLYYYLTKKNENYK
- EXPERIMENTAL PROTOCOL: Recombinant HDAC µSPOT microarray binding assay;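 further: peptide spots on cellulose slides incubated with rising HDAC enzyme concentrations, imaged together, four-parameter logistic fit, EC50 is enzyme concentration giving half-maximal binding signal, two experiments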;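 further: relative spot intensity from the six enzyme-concentration slides imaged together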
- CONDITION SET: HDAC3 µSPOT microarray, Fig. 3; fitted top plateau of binding signal; X = Asuha
Mark each entry rule met if its Top (dose-response curve fit) sits below 0.6, and rule not met for all others.

SUBSTANCE	ASSIGNED CLASS
H2A 100-115 (VTIAQGGVLPNIQAVL; UniProt P0C0S8 101-116, looked up, fragment)	rule not met
H2B 91-106 (SREIQTAVRLLLPGEL; UniProt P62807 92-107, looked up, fragment)	rule met
H2B 67-82 (NDIFERIAGEASRLAH; UniProt P06899 68-83, looked up, fragment)	rule met
H2B 61-76 (IMNSFVNDIFERIAGE; UniProt P62807 62-77, looked up, fragment)	rule met
H2A 37-52 (GNYSERVGAGAPVYLA; UniProt P04908 38-53, looked up, fragment)	rule not met
H2A 19-34 (SRAGLQFPVGRVHRLL; UniProt P04908 20-35, looked up, fragment)	rule not met
